The following variants are listed with their measured self-cleavage values.
B1: Hairpin Ribozyme (parent)
chain: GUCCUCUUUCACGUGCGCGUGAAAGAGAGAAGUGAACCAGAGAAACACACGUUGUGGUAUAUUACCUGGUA

Variants of: B1
Measurement Notes: self-cleavage, relative activity (ratio to wild type); higher = more cleavage; co-transcriptional

Residue String	self-cleavage
GCCCUCUUUCACGUGCGCGUGAAAGAGAGAAGUGAAACAGAGAAACACACGUUGUGGUAUAUUACCUGGUA	0.0991
GUCCUCUUUCACGUGCGCGUGAAAGGGAGCAGUGAACCAGAGAAACACACGUUGUGGUAUAUUACCUGGUA	0.0939
GUCCUCUUUCACGUGCGCGGGAAAGAGAGAAGUGAACCAGACAAACACACGUUGUGGUAUAUUACCUGGUA	0.206
GUCCUCUUUCACGUGCACGUGAAAGAGAGAAGUGAACCAGAGAAACACACCUUGUGGUAUAUUACCUGGUA	0.656
GUCCUCUUUCACGUGUGCGUGAAAGAGAGAAGUGAACCAGAGAAACUCACGUUGUGGUAUAUUACCUGGUA	0.0914
GUCCUCUUUCACGUGCGUGUGAAAGAGAGAAGUGAACCAGAGAAACACACGUUGUGGUAAAUUACCUGGUA	0.883
GUCCUCUUUCACGUGCGCGUGGAAGAGAGAAGUGAACCAGCGAAACACACGUUGUGGUAUAUUACCUGGUA	1.01
GUCCUCUUUCACGUGCGCGUGAAACAGAGAAGUGAACCAGAGAAACAGACGUUGUGGUAUAUUACCUGGUA	0.127
GUCCUCUUUCACGUGCGCGUGAAAGAGAGAGGUGAACCAGAGAAACACACGUUGUGGUAUAUUACCUGUUA	0.258
GUCCUCUUUCACGUGCGCGUGAAAGAGAGUAGUGAACCAGAGAAACACACGUUGUGGAAUAUUACCUGGUA	0.115
GUCCUCUUUCACGUGCGCGUGAAAGAGAGAAGUGAACCAGAGAAACACAUGUUGUGGUACAUUACCUGGUA	0.729
GUCCUCUUUCACGUGCGCGUGAGAGAGAGAAGUGAACCAGAGAAACACACGUUGUGGUAAAUUACCUGGUA	0.694
GUCCUCUUUCAGGUGCGCGUGAGAGAGAGAAGUGAACCAGAGAAACACACGUUGUGGUAUAUUACCUGGUA	0.853
CUCAUCUUUCACGUGCGCGUGAAAGAGAGAAGUGAACCAGAGAAACACACGUUGUGGUAUAUUACCUGGUA	0.126
GUUCUCUUUCACGUGCGCGUGAAAGAGAGAAGUGAACCAGAGAGACACACGUUGUGGUAUAUUACCUGGUA	0.254
GUCCUCUAUCACGUGCGCGUGAAAGAGAGAAGCGAACCAGAGAAACACACGUUGUGGUAUAUUACCUGGUA	0.137
GUCGUCUUUCACGUGCGCGUGAAAGAGAGAAAUGAACCAGAGAAACACACGUUGUGGUAUAUUACCUGGUA	0.154
GUCCUCUUUCACGUGCGCGUGAAAGAGAGAAGUGAACAAGAGAAGCACACGUUGUGGUAUAUUACCUGGUA	0.104
GUCCACUUUCACGUGCGCGUGAAAGAGAGAAGUGAACCAGAGAAACACACGUUGUGGUAAAUUACCUGGUA	0.477
GUCCUCUUUCACGUGCGCGUGAAAGAGAGAAGUGAACCAGAGAAACAACCGUUGUGGUAUAUUACCUGGUA	0.155
GUCCUCUUUCACGUGCCCGUGAAAGAGAGAAGUGAACCAGAGAAACACACGUUGUGGUAUAUUACCUGGUA	0.751
GUCCUCUUUCACUUGCGCGUGAAAGAGAGAAGUGAACCAGAGAAACGCACGUUGUGGUAUAUUACCUGGUA	0.143
GUCAUCUUUCACGUGCGCGUGAAAGAGAGAAGUGAACCAGAGAAACACACGUUGUGGUAUAUUACCUGGUA	0.218
GUCCUCUUUCACGUGCGCGUGAAAGAGAGAAGUGAACCAGAGAAACACACGUUGUGAUAUAGUACCUGGUA	0.273
GUCCUCUUUCACGUGCGCGUGAAAGAGAGAAGUUAACCAGAGCAACACACGUUGUGGUAUAUUACCUGGUA	0.0997
GUCCUCUUUCACGUGCGCGUGAAAAAGAGAAGUGAACCAGAGAAAGACACGUUGUGGUAUAUUACCUGGUA	0.135
GUCCUCUUUCACGUGCGCGUGAAAGAGAGAAGUGACCCGGAGAAACACACGUUGUGGUAUAUUACCUGGUA	0.363
GUCCUCUUUCACGUGCGCGUGAAAGAGAGAAGUGAACCAGAGAAACACACGUUGUAGUAUAUUACCUGGUU	0.142
GUCCUCUUUCACGUGCGCGUGAAAGAGAGAAGUGAACCAGAGAAACACACGUUGUGGUACAUUAGCUGGUA	0.531
GUCCUCUUUCAGGUGCGCGUCAAAGAGAGAAGUGAACCAGAGAAACACACGUUGUGGUAUAUUACCUGGUA	0.47
GUCCUCUUUCAGGUGCUCGUGAAAGAGAGAAGUGAACCAGAGAAACACACGUUGUGGUAUAUUACCUGGUA	0.627
GUCCUCUUUCACGUGCGCGUGAAAGAAAGAAGUGAACCAGAGAAACACACGUUGUGGUGUAUUACCUGGUA	0.191
GUCCUCUUUCACGUGCGCGUGAAAGAAAGUAGUGAACCAGAGAAACACACGUUGUGGUAUAUUACCUGGUA	0.0812
GUCCUCUUUCACGUGCGCGUGAAAGAGAGAAGUGAACCAGAGAAACACACGUUGUGGUUUAUUACCUGAUA	0.182
GUCCUCUUUCACGUGCGCGUGAAAGAGAGAAGUGAACCAGAGAAACACACGUUGUGGUAUAUUACAUGGUU	0.184
GUCAUCUUUCACGUGCGCGUGAAAGAGAGAAGUGAACCAGAGAAACACACGUUGUGGUAUAUUACCUCGUA	0.141
GUCCUCUUUCACGUGCGCGUGAAAGAGAGAAGUGAACCAGAGUAACACACGUUGUGGUAUAUUACCUGGUC	0.396
GUCCUCUUUCACGUGCGCGUGAAAGAGAGAGGUGAAGCAGAGAAACACACGUUGUGGUAUAUUACCUGGUA	0.162
GUCCUCUUUCACGUGCGCGUGAAAGAGAGAAGUGAACCAGAGAAACAAACGUUGUGGUAUAUAACCUGGUA	0.174
GUCCUCUUUCACGUGCGCGUGAAAGAGAGAGGUGAACGAGAGAAACACACGUUGUGGUAUAUUACCUGGUA	0.0773
GUCCUCUUUCACGUGCGCGUGAAAGAGAGAAGUGAACCAGAGAAGCACACGUUGUGGUAUCUUACCUGGUA	0.142
GUCCUCUUUAACGUGCGCGUGAAAGAGAGGAGUGAACCAGAGAAACACACGUUGUGGUAUAUUACCUGGUA	0.131
GUCCUCUUUCACGUGCGCGAGAAAGAGAGAAGUGAACCAGAGAAACAAACGUUGUGGUAUAUUACCUGGUA	0.23
GUCCUCUUUCACGUGCGCGUCAAAGAGAGAAGUGAACCAGAGAUACACACGUUGUGGUAUAUUACCUGGUA	0.0331
GUCCUCUUUCACGUGCGCGUUAAAGAGAGAAGUGAACCAGAUAAACACACGUUGUGGUAUAUUACCUGGUA	0.285
GUCCUCUUUCACGUGCGCGUGAAAGAGAGAAGUGAACCAGAGAGACACACGUAGUGGUAUAUUACCUGGUA	0.214
GUCCUCUUUCACGUGCGCGUGAAAGAGCGAAGUGAACCAGAGAAACACACGUAGUGGUAUAUUACCUGGUA	0.39
GUCCUCUUUCACGUGCGCGUGAAAGAGAGAAGUGAACCUGAGAAACACACGUUGUUGUAUAUUACCUGGUA	0.189
GUCCUCUUUCACGUGCGCGGGAAAGAGAGAAGUGAACCAGAGAAACACACGUUGUGGUAUGUUACCUGGUA	0.257
GUCCUCUCUCACGUGCGCGUGAAAGAGAGAAGUGAACCAGAGAAACACACGUUGUGGUAUAUUACCUGCUA	0.164
GUCCUCUUUCAGGUGCGCGUGAAAGAGAGAAGUGAACUAGAGAAACACACGUUGUGGUAUAUUACCUGGUA	0.392
GUCCUCUUUCACGUGCGCGUGAAAGAGAGAAGUGAACCAGAGGAACACACGUUGUGGUAUAUUACAUGGUA	0.171
GUCCUCUUUCACAUGCGCGUGAAAGAGAGAAGUGAACCAGAGAGACACACGUUGUGGUAUAUUACCUGGUA	0.125
GUCCUCUUUCACGUGCGCGUGAAAGGGAGAAGUGAACCACAGAAACACACGUUGUGGUAUAUUACCUGGUA	0.167
GUCCUCUUUCACGUGCGCGUGAAACAGAGAAGUGAACCAGAGAAACACACGUUGUGGUAUGUUACCUGGUA	0.115
GUCCUCUUUCACGUGCGCGUGAAAGAGAGUAGUGAACCAGAGAAACACACGUUGUGGUUUAUUACCUGGUA	0.0496
GUCCUCUUUCACGCGCGCGUAAAAGAGAGAAGUGAACCAGAGAAACACACGUUGUGGUAUAUUACCUGGUA	0.865
GUCCUCUUCCACGUGUGCGUGAAAGAGAGAAGUGAACCAGAGAAACACACGUUGUGGUAUAUUACCUGGUA	1.02
GUCCUCUUUCACGUGCGCGUGAAAGAGAGAAGUGAAACAGAGAAACACACGUCGUGGUAUAUUACCUGGUA	0.515
GUCCUCUUUCACGUGCGCGUGAAAGAGAGAAGUGAACCAGAGAAACAUAAGUUGUGGUAUAUUACCUGGUA	0.0417
GUCCUCUUUCACGUGCGCGUGAAAGAGAGAAGGGAACCAGAGAAACACAGGUUGUGGUAUAUUACCUGGUA	0.12
GUCCUCUUUCACGUGCGCGUGAAAGAGAGAAGUUAACCAGAGAACCACACGUUGUGGUAUAUUACCUGGUA	0.213
GUCCUCUUUCACGUGCGCGUGAAAGAGAGAAGUGAACCAGAGAAACACACGUCGUGGUAUCUUACCUGGUA	0.142
GUCCUCUUGCACGUGCGCGUGAAAGAGAGAAGUGAACCAGAGAAGCACACGUUGUGGUAUAUUACCUGGUA	0.205
GUCCUCUUUCACGUGCGCGUGAAAGAGAGAUGUGAACCAGAGAAACACCCGUUGUGGUAUAUUACCUGGUA	0.139
GUCCUCUUUCACGUGCGCGUGAAAGAGAGAAGUAAACCAGAGAAAUACACGUUGUGGUAUAUUACCUGGUA	0.135
GUCCUCUUUCACGUGCGCGUGAAAAAGGGAAGUGAACCAGAGAAACACACGUUGUGGUAUAUUACCUGGUA	0.849
GUCCUCUUUCACGUGCGCGUGAAAGAGAGAAGUGAACCAGAGAAACACACGUGGUGGUAUAUUACCGGGUA	0.119
GUCCUCUUUCGCGUGCGCGUGAAAGAGAGAAGUGAACCAGAGAAACACACGGUGUGGUAUAUUACCUGGUA	0.681
GUCCUCUUUCACGUGCGGGUGAAAAAGAGAAGUGAACCAGAGAAACACACGUUGUGGUAUAUUACCUGGUA	0.578
GUCUUCUUUCACGUGCGCGUGAAAGAGAGAAGUGAACCAGAGAAACACACGUUGAGGUAUAUUACCUGGUA	0.0732
CUCCUCUUUCACGUGCGCGUGAAAGAGAGAAGUGAACCAGAGAAACACACGUUGUGGUAAAUUACCUGGUA	0.123
GCCCUCUUUCACGUGCGCGUGAAAGAGAGAAGUGAACCAGAGAAACACUCGUUGUGGUAUAUUACCUGGUA	0.141
GUCCUCUUUCACGUGCGCGUGAAAGAGAAAAGUGAACCAGAGAAACACACGGUGUGGUAUAUUACCUGGUA	0.0639
GUCCUCUUUCACGUGCGCGUGAAAGAGAGGAGUGAAACAGAGAAACACACGUUGUGGUAUAUUACCUGGUA	0.192
GUCCUCUUUCACGUGCGCGUGAAAGAGAGUAGUGAACCAGAGAAACACACGUUGUUGUAUAUUACCUGGUA	0.149
GUCCUCUUUCACGUGCGCGUGAAAGAGAGUAGUGAACCAGAGAAACACACGUUGUGGUAUAUUACCUGGUU	0.101
GUCCUCUUUCACGUGCGUGUGAAAGAGAGAAGUGAACCAGAGAAACACACGUUGUGGUAUAUUACGUGGUA	0.202
GUCCUCUUUCACGUGCGCGUGAAAGAGAGAAGUGAACCAGAGAAACACACGUUGUGGUAGAUUCCCUGGUA	0.186
GUCCUCUUUCACGUGCGCGUGAAAGAGAGAAGUGAACCAGAGAUACACACGUUGUGGUACAUUACCUGGUA	0.103
GUCCUCUUUAACGUGCGCGUGAAAGAGAGAAGUGAGCCAGAGAAACACACGUUGUGGUAUAUUACCUGGUA	0.856
GUCCUCUUUCACCUGCGCGUGAAAGAGAGAAGUGAACCAGAGAAACACAAGUUGUGGUAUAUUACCUGGUA	0.137
GUCCUCUUUCACGUGCGCGUGAAAGAGAGAAGUGAUCCAGAGAAACACACGUUGUGGUAUAUUAACUGGUA	0.502
GUCCUCUUUCACGUGCGCGUGAAAGAGAGACGUGAACCAGAGAAACGCACGUUGUGGUAUAUUACCUGGUA	0.108
GUCCUCUUUCACCUGCGCGUGAAAGAGAGAAGUGAACCAGAGAAACACACGUUGUGGUAUAUUACCUGGUU	0.41
GUCCUCUUUCACGUGCGCGUGAAAGAGAGAAUUGAACCAGAGAAACACACGUUGUGGUAUAUUACGUGGUA	0.19
GUCCUCUUUCACGUGCGCGUGAAAGAGAGAAGUGAACCAGAGAAACCCCCGUUGUGGUAUAUUACCUGGUA	0.204
GUCCUCUUUCACGUGCGCGUGAAAGAGAGAAGUGAACCAGAGAAACAAACGUUGUCGUAUAUUACCUGGUA	0.131
GUCCUCUUUCACGUGCGCGUGAAAGAGACAAGUGAACCAGAGAAACAGACGUUGUGGUAUAUUACCUGGUA	0.0534
GUCCUCUUUCACGUGCGCGUGAAAGAGGGAAGUGAACCAGAGAAACACACGUUUUGGUAUAUUACCUGGUA	0.541
GUCCUCUUUCACGUGCGCGUGAAAGAGGGAAGUGAACCAGAGAAACACACGUUGUGGUAUAUAACCUGGUA	0.141
